# Test system: S. aureus Newman
# Type: cell-based, Staphylococcus aureus
# recorded.conditions: LB agar, 24 hr, mean ± SD
# Method: Antibiotic resistance frequency was determined on LB agar plates containing 4× and 10×, the minimum inhibitory concentrations of several antibiotics. MICs were determined for S. aureus Newman in liquid LB media. […] After 24 hr, mutation rates were calculated by counting the number of colonies present and dividing by the total number of colonies plated. […]
Record form. Attribute: Mutational frequency at 10× MIC. Fill in for each entry.

Reported Mutational frequency at 10× MIC of CCOc1ccc2ccccc2c1C(=O)N[C@@H]1C(=O)N2[C@@H]1SC(C)(C)[C@@H]2C(=O)O [Nafcillin] : <1 E-10

Reported Mutational frequency at 10× MIC of CC(=O)NC[C@H]1CN(c2ccc(N3CCOCC3)c(F)c2)C(=O)O1 [Linezolid] : <1 E-10

Reported Mutational frequency at 10× MIC of CC(C)(C)C(=O)OCOP(=O)(OCOC(=O)C(C)(C)C)C1CCCN(O)C1=O (stereo not drawn) [POM-HEX] : 2.92 ± 0.57 E-07

Reported Mutational frequency at 10× MIC of CO[C@H]1/C=C/O[C@@]2(C)Oc3c(C)c(O)c4c(O)c(c(/C=N/N5CCN(C)CC5)c(O)c4c3C2=O)NC(=O)/C(C)=C\C=C\[C@H](C)[C@H](O)[C@@H](C)[C@@H](O)[C@@H](C)[C@H](OC(C)=O)[C@@H]1C [Rifampicin] : 7.64 ± 2.10 E-08

Reported Mutational frequency at 10× MIC of CCC[C@@H]1C[C@@H](C(=O)N[C@@H]([C@H]2O[C@H](SC)[C@H](O)[C@@H](O)[C@H]2O)[C@H](C)Cl)N(C)C1 [Clindamycin] : <1 E-10

Reported Mutational frequency at 10× MIC of CN[C@H](CC(C)C)C(=O)N[C@H]1C(=O)N[C@@H](CC(N)=O)C(=O)N[C@H]2C(=O)N[C@H]3C(=O)N[C@H](C(=O)N[C@H](C(=O)O)c4cc(O)cc(O)c4-c4cc3ccc4O)[C@H](O)c3ccc(c(Cl)c3)Oc3cc2cc(c3O[C@@H]2O[C@H](CO)[C@@H](O)[C@H](O)[C@H]2O[C@H]2C[C@](C)(N)[C@H](O)[C@H](C)O2)Oc2ccc(cc2Cl)[C@H]1O [Vancomycin] : <1 E-10

---

# Tested on: human sera
# method.description: Esterase substrate specificity, fluorogenic SAR library kinetics in serum
# Type: in vitro ADME
endpoint.name: Vmax

Reported Vmax of CCOCCC(=O)OCOc1ccc2c(c1)Oc1cc(OCOC(=O)CCOCC)ccc1C21OC(=O)c2ccccc21 [5O] : 2.25 pmol*min-1*mg sera-1

Reported Vmax of COC(C)C(=O)OCOc1ccc2c(c1)Oc1cc(OCOC(=O)C(C)OC)ccc1C21OC(=O)c2ccccc21 (centres unmarked) [7O] : 5.73 pmol*min-1*mg sera-1

Reported Vmax of CC(C)OCC(=O)OCOc1ccc2c(c1)Oc1cc(OCOC(=O)COC(C)C)ccc1C21OC(=O)c2ccccc21 [6O] : 11.7 pmol*min-1*mg sera-1

Reported Vmax of CCOCC(=O)OCOc1ccc2c(c1)Oc1cc(OCOC(=O)COCC)ccc1C21OC(=O)c2ccccc21 [2O] : 43.8 pmol*min-1*mg sera-1

Reported Vmax of CCC(C)C(=O)OCOc1ccc2c(c1)Oc1cc(OCOC(=O)C(C)CC)ccc1C21OC(=O)c2ccccc21 (centres unmarked) [7C] : 0.441 pmol*min-1*mg sera-1

Reported Vmax of CCCCC(=O)OCOc1ccc2c(c1)Oc1cc(OCOC(=O)CCCC)ccc1C21OC(=O)c2ccccc21 [2C] : 0.356 pmol*min-1*mg sera-1

Reported Vmax of CCCSCC(=O)OCOc1ccc2c(c1)Oc1cc(OCOC(=O)CSCCC)ccc1C21OC(=O)c2ccccc21 [3S] : 8.80 pmol*min-1*mg sera-1

Reported Vmax of COC(C)(C)C(=O)OCOc1ccc2c(c1)Oc1cc(OCOC(=O)C(C)(C)OC)ccc1C21OC(=O)c2ccccc21 [10O] : 1.46 pmol*min-1*mg sera-1
